target: UniProtKB P9WNZ1; assay: High-throughput end-point pyrophosphate quantification assay (Biomol Green); assay type: biochemical
observed property: IC50
Value and unit, in that order.

# IC50 lookup, item O=c1cc(-c2ccccc2)oc2cc(O)c(O)c(O)c12 [2a]
3.1 µM

----------
Exercise: state measured Ki for each of the compounds provided.
molecular target: MtbCoaBC (Mycobacterium tuberculosis); test: Competition assays, first half of CoaB reaction (EnzChek, variable CTP or PPA); type: biochemical; conditions: variable substrate CTP
Sequence (P9WNZ1 whole entry): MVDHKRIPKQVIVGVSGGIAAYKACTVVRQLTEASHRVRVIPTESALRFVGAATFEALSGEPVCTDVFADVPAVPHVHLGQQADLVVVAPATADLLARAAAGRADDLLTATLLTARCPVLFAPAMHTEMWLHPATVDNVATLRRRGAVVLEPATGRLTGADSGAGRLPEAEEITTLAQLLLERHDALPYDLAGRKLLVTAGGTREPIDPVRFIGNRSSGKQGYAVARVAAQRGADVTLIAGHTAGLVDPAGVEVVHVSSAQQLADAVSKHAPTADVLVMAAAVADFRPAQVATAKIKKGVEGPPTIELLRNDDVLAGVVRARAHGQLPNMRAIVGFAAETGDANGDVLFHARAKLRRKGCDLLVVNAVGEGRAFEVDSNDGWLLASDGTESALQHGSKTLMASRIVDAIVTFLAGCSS
# output: bare number, implied unit µM

Which Ki reading was recorded for the compound "O=c1cc(-c2ccc(O)c(O)c2)oc2cc(O)c(O)cc12" ?
0.093

Sample "CC(=O)SCCNC(=O)CCNC(=O)[C@H](O)C(C)(C)COP(=O)(O)OP(=O)(O)OC[C@H]1O[C@@H](n2cnc3c(N)ncnc32)[C@H](O)[C@@H]1OP(=O)(O)O" — what was its Ki?
22.5
